Target: P2Y12 receptor (Homo sapiens)
Construct: expressed in transfected cells; host or cells: CHO cells (membranes)
Sequence (Q9H244 whole entry): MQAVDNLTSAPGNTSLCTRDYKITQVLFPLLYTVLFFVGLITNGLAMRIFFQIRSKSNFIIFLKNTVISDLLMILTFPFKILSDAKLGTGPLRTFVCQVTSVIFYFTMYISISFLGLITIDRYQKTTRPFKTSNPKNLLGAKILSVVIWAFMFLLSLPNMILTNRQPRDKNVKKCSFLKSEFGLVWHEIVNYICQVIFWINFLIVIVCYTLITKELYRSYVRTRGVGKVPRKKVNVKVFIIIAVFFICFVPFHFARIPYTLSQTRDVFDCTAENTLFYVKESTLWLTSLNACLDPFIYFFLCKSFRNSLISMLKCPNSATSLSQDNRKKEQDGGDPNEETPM
Test: Functional inhibition of 2-Me-S-ADP induced P2Y12 signalling (35S-GTPγS binding, membranes from P2Y12 transfected CHO-cells)
Type: biochemical
Settings: 35S-GTPγS, EC80 of 2-methyl-thio-adenosine diphosphate, P2Y12 CHO membranes; value given in each example; read-out: GTPγS(IC50 μM)
Recorded endpoint: IC50 (µM)

These solved cases illustrate the format of a correct answer.
1. CCCC(=O)c1cc(Cl)c(N2CCC(C(=O)NS(=O)(=O)Cc3ccc(F)cc3F)CC2)nc1CN1CCCC1=O [Example 53] : 0.032
2. N#Cc1cc(C(=O)C2CC2)c(CN2CCCC2=O)nc1N1CCC(C(=O)NS(=O)(=O)Cc2ccccc2)CC1 [Example 8] : 0.032
3. CCCCC(=O)c1cc(C#N)c(N2CCC(C(=O)NS(=O)(=O)Cc3ccccc3)CC2)nc1CN1CCCC1=O [Example 18] : 0.013
4. CCCC(=O)c1cc(C#N)c(N2CCC(C(=O)NS(=O)(=O)Nc3ccccc3)CC2)nc1CN1CCCC1=O [Example 38] : 0.033

[1] CCCCC(=O)c1cc(C#N)c(N2CCC(C(=O)NS(=O)(=O)Cc3ccc(C#N)cc3)CC2)nc1CN1CCCC1=O [Example 47]
[2] CCCC(=O)c1cc(C#N)c(N2CCC(C(=O)NS(=O)(=O)N(C)c3ccc(F)cc3)CC2)nc1CN1CCCC1=O [Example 33]
[3] Cc1ccc(CS(=O)(=O)NC(=O)C2CCN(c3nc(CN4CCCC4=O)c(C(=O)CCC(F)(F)F)cc3C#N)CC2)cc1 [Example 43]
Put the entries in order of IC50, starting with the largest number. Lab note: final answer is the ordered label list.
1, 3, 2
